This collection of values is drawn from the RNAGym collection of RNA variant scans (doi:10.7554/elife.80360).

B1: HDV Ribozyme (parent)
chain: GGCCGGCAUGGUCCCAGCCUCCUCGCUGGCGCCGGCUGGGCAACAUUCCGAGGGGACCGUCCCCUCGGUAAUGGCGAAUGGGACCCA

# Variants of: B1
# TEST DETAILS: self-cleavage, relative activity (ratio to wild type); higher = more cleavage; co-transcriptional

# MUTATION, self-cleavage
rows = [
    ("G6C C64G", 0.344),
    ("C14G C61U", 0.598),
    ("G6A U65G", 0.506),
    ("C14A C18U", 0),
    ("G10A C62A", 0.673),
    ("U27A C66A", 0.886),
    ("G25C U79A", 0.0615),
    ("C22A G73U", 0.0573),
    ("C41G C85A", 0.617),
    ("C66G G68A", 0.695),
    ("C3G C64U", 0.726),
    ("C41G G55U", 0.86),
    ("G40U G80U", 0.171),
    ("G1C G67A", 0.0898),
    ("U37C U69G", 1.19),
    ("G55A C63A", 1.21),
    ("A8G U27A", 0.867),
    ("C7A C57U", 0.702),
    ("C4A C64U", 0.277),
    ("C3G G5A", 0.18),
    ("G10U C22G", 0.0623),
    ("C15U C30U", 0.554),
]
